Source of measurements: paper PMC8119466

Provide the recorded % Phosphatase Activity (compared to DMSO) PRL-1 for the entries that follow.
target: recombinant PRL-1 (Homo sapiens, UniProt Q93096); construct: 6xHis (N, cleaved yes); made in house; host or cells: E. coli One Shot BL21 Star; test: In vitro phosphatase assay (DiFMUP hydrolysis), PRL-1; type: biochemical; settings: FDA-approved drug screen; compared to DMSO; note: test concentration or dose not given here
Sequence (Q93096 whole entry): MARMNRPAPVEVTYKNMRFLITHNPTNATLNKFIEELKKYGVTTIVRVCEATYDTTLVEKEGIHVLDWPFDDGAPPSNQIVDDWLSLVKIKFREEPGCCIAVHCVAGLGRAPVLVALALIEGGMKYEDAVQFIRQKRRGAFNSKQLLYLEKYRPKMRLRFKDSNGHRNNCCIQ
Structures can show the parent of a compound that is named as a salt.
The reply should contain only the number, in %.

% Phosphatase Activity (compared to DMSO) PRL-1 reported for this molecule `OCc1ccccc1` : 94

% Phosphatase Activity (compared to DMSO) PRL-1 in this record for `C=CC(=O)Nc1cccc(Oc2nc(Nc3ccc(N4CCN(C)CC4)cc3)nc3ccsc23)c1` : 90

Notebook: C=C1c2cccc(O)c2C(=O)C2=C(O)[C@]3(O)C(=O)C(C(N)=O)=C(O)[C@@H](N(C)C)[C@@H]3[C@@H](O)[C@H]12 [Methacycline HCl] , % Phosphatase Activity (compared to DMSO) PRL-1 read as 82

The value of % Phosphatase Activity (compared to DMSO) PRL-1 measured for the molecule `Nc1ccn([C@@H]2CS[C@H](CO)O2)c(=O)n1` turned out to be 104

get_value(item= Cc1ncc(CO)c(CO)c1O [Pyridoxine HCl] , readout=% Phosphatase Activity (compared to DMSO) PRL-1) returns 100

For this molecule ( CC(C)(CO)C(O)C(=O)NCCCO (racemic) ), measured % Phosphatase Activity (compared to DMSO) PRL-1 is 109

Lab book: % Phosphatase Activity (compared to DMSO) PRL-1 of `CC1=NN(c2ccccc2)C(=O)C1` noted as 90

Entry CCc1c2c(nc3ccc(OC(=O)N4CCC(N5CCCCC5)CC4)cc13)-c1cc3c(c(=O)n1C2)COC(=O)[C@]3(O)CC.Cl.O.O.O [Irinotecan HCl Trihydrate] — recorded % Phosphatase Activity (compared to DMSO) PRL-1 = 4597
